The measured values listed here are drawn from ChEMBL document CHEMBL3885881.

organism: Rattus norvegicus; experiment: DrugMatrix - Regimen: Daily Repeat; assay type: toxicity, organism-based, Sprague-Dawley; set-up: regimen Daily Repeat, gender Male, age 6-8 weeks; settings: in vivo, po, 0 mg/kg, 72 h, tissue Blood, route oral GAVAGE, dose level Control, time 3 day, vehicle 100 % WATER
Think of 0.5% as a floor: if EOSINOPHIL stands on it or above, it is label 1; beneath it, label 0.

Solved entries (count: 10):
CN1CCC[C@H]1c1cccnc1
label 0
NC(=O)c1ncn([C@@H]2O[C@H](CO)[C@@H](O)[C@H]2O)n1
label 0
NCC1(CC(=O)O)CCCCC1
label 1
NNC(=O)c1ccncc1
label 0
CC1COc2c(N3CCN(C)CC3)c(F)cc3c(=O)c(C(=O)O)cn1c23 (centres undefined)
label 0
CC(CCc1ccccc1)NCC(O)c1ccc(O)c(C(N)=O)c1 (centres undefined)
label 1
CC1(C)S[C@@H]2[C@H](NC(=O)[C@H](N)c3ccc(O)cc3)C(=O)N2[C@H]1C(=O)O
label 0
COc1ccc(C(CN(C)C)C2(O)CCCCC2)cc1 (centres undefined)
label 1
O=C1NC(=O)C(c2ccccc2)(c2ccccc2)N1
label 1
Cn1cnc([N+](=O)[O-])c1Sc1ncnc2nc[nH]c12
label 1

[Q] Hi team, for CN1CCN(C(=O)OC2c3nccnc3C(=O)N2c2ccc(Cl)cn2)CC1 (centres undefined) , is the recorded EOSINOPHIL at or above 0.5%?
[A] label 1

[Q] Record Nc1ccc(S(=O)(=O)Nc2ccnn2-c2ccccc2)cc1 ; criterion: EOSINOPHIL no lower than 0.5%. Met?
[A] label 0

[Q] Given CNCCC=C1c2ccccc2CCc2ccccc21 , state whether its EOSINOPHIL is at least 0.5%.
[A] label 1

---

Answer each item with its documented ASPARTATE AMINOTRANSFERASE.
species on record: Rattus norvegicus; test: DrugMatrix - Regimen: Daily Repeat; type: toxicity, organism-based, Sprague-Dawley; parameters: regimen Daily Repeat, gender Male, age 6-8 weeks; details: in vivo, po, 2000 mg/kg, 72 h, tissue Plasma, route oral GAVAGE, dose level High, time 3 day, vehicle .5 % CMC
Give bare numbers, in u/L.

Items follow; give ASPARTATE AMINOTRANSFERASE for each.
1. NCCCC[C@H](N[C@@H](CCc1ccccc1)C(=O)O)C(=O)N1CCC[C@H]1C(=O)O [LISINOPRIL ANHYDROUS]
2. NCC(=O)O
3. CC(=O)O[C@]1(C(C)=O)CC[C@H]2[C@@H]3C=C(Cl)C4=CC(=O)CC[C@]4(C)[C@H]3CC[C@@]21C [CHLORMADINONE ACETATE]
4. CC(C)[C@H](N)C(=O)OCCOCn1cnc2c(=O)[nH]c(N)nc21

[A]
[68, 51.67, 82, 81.67]

---

organism: Rattus norvegicus; experiment: DrugMatrix - Regimen: Daily Repeat; assay type: toxicity, organism-based, Sprague-Dawley; design: regimen Daily Repeat, gender Male, age 6-8 weeks; conditions: in vivo, po, 1500 mg/kg, 120 h, tissue Blood, route oral GAVAGE, dose level High, time 5 day, vehicle .5 % CMC
Would you mind telling me the reported ERYTHROCYTE COUNT of each entry?

CCOC(=O)[C@H](CCc1ccccc1)N[C@@H](C)C(=O)N1[C@H](C(=O)O)C[C@@H]2CCC[C@@H]21
5.8 x10E6/uL

Report ERYTHROCYTE COUNT for every entry below.
1. O=C1CCc2cc(OCCCCc3nnnn3C3CCCCC3)ccc2N1
2. NS(=O)(=O)c1cc2c(cc1Cl)NCNS2(=O)=O [HYDROCHLOROTHIAZIDE]
3. COC(=O)c1ccc(O)cc1

[A]
1. 7 x10E6/uL
2. 5.59 x10E6/uL
3. 5.64 x10E6/uL
